Target: T1, soluble cynomolgus GPNMB (recombinant extracellular domain) (cynomolgus, UniProt Q14956 23-499 (human entry), limits assumed)
T1 chain: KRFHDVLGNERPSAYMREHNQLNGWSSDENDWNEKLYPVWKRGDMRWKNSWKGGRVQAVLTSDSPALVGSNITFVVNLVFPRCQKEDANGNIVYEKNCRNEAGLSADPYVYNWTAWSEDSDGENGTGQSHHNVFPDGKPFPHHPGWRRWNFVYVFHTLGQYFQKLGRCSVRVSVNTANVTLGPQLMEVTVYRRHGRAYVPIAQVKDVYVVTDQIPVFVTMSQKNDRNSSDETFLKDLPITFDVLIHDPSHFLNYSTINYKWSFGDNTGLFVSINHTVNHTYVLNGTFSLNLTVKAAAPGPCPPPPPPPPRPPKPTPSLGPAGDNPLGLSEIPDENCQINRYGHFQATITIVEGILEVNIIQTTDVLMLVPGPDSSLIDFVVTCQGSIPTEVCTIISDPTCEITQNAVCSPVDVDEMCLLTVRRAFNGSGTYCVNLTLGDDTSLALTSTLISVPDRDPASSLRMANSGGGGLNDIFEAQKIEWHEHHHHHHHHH
Assay: SPR Carterra, Ab immobilized
Hi there, I'd appreciate the recorded koff for every entry that follows.
Numbers only, in s⁻¹.

// below: answered binders
binder	koff [s⁻¹]
anti-GPNMB antibody GPN-34 (antibody, human IgG1, V domains shown, chimeric) VH: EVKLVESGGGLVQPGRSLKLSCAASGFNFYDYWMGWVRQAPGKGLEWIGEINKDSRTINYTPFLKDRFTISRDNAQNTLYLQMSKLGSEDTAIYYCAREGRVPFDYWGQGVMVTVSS VL: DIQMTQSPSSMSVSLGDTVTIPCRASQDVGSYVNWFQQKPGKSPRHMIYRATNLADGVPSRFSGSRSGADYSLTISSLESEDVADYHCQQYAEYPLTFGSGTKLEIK	0.00011
anti-GPNMB antibody GPN-11 (antibody, human IgG1, V domains shown, chimeric) VH: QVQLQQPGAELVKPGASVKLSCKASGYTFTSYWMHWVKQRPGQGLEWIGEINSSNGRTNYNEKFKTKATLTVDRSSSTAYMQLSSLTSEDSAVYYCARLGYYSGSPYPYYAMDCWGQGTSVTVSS VL: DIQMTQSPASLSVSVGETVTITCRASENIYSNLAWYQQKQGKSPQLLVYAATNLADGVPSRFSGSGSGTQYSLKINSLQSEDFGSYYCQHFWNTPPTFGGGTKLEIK	0.00095
anti-GPNMB antibody GPN-26 (antibody, human IgG1, V domains shown, chimeric) VH: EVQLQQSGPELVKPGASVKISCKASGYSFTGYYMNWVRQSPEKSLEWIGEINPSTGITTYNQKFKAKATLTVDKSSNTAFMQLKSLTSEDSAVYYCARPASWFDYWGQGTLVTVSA VL: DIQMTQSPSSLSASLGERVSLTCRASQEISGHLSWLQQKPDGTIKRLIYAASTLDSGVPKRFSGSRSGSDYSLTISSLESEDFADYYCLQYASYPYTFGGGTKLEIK	0.00027

Lookup: Which koff is listed for anti-GPNMB antibody GPN-08 (antibody, human IgG1, V domains shown, chimeric) VH: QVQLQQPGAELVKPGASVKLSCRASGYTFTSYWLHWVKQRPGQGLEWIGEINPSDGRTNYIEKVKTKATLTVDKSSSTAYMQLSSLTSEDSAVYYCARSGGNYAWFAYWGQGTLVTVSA VL: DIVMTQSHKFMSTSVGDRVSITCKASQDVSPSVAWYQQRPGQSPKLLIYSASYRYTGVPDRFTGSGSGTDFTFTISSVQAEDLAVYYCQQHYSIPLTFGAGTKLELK ?
Found: 0.0015
